# TARGET_SYSTEM: human PAI-1 (Homo sapiens, UniProt P05121)
# Sequence (P05121 24-402): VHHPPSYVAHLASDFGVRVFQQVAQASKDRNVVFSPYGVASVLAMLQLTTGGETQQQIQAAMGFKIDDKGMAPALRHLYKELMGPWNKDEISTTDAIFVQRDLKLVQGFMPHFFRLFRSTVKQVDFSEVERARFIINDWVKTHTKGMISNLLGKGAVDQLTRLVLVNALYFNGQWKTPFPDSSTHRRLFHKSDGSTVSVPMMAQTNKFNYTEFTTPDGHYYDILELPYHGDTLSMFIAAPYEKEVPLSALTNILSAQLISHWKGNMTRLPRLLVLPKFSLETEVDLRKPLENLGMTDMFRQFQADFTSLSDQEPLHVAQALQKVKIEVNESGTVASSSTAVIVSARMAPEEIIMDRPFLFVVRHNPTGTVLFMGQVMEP
# TEST_DESCRIPTION: Measurement of PAI-1 inhibitory activity of compound group 1 (t-PA, Spectrozyme t-PA chromogenic substrate)
# EXPERIMENTAL_PARAMETERS: read-out: PAI-1 activity %
Counter-ions that a name gives are not always drawn.
Quick rule for you: activity at 2.5 µM at 90% or higher means rule met, lower means rule not met.

COMPOUND | ANSWER_LABEL
O=C(Nc1ccc(Cl)cc1C(=O)O)c1cccc(C#CC2CCCCC2)c1 | rule not met
O=C(Nc1ccc(Cl)cc1C(=O)O)c1ccc(C(=O)C23CC4CC(CC(C4)C2)C3)cc1 | rule not met
Cc1cc(C)cc(-c2ccc(NC(=O)COc3cccc(-c4ccoc4)c3)c(C(=O)O)c2)c1 | rule not met
O=C(Nc1ccc(Cl)cc1C(=O)O)c1cccc(-c2ccccc2)c1 | rule not met
Cc1cccc(-c2ccc(NC(=O)COc3cccc(-c4ccoc4)c3)c(C(=O)O)c2)c1 | rule not met
O=C(COC(c1ccccc1)c1ccccc1)Nc1ccc(Cl)cc1C(=O)O | rule met
O=C(COc1cccc(-c2ccco2)c1)Nc1ccc(Cl)cc1C(=O)O | rule met
O=C(Nc1ccc(Cl)cc1C(=O)O)c1ccc(N2CCCC2)cc1 [Example 83, hydrochloride] | rule met
